Tested on: LOC_OS04G38480-cb003;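 further: purified Escherichia coli-expressed rice kinase domain construct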
Sequence (as listed by the source): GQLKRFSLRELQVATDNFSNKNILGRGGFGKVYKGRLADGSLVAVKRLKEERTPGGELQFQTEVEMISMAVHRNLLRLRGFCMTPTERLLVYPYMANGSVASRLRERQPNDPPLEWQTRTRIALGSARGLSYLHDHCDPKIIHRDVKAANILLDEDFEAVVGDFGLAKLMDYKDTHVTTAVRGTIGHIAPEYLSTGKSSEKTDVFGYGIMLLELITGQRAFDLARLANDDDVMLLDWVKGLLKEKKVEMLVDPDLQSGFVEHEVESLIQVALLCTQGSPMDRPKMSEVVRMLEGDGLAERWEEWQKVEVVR
ASSAY_PROTOCOL: thermal shift delta Tm vs DMSO control; higher = stronger stabilization (binding)
ASSAY_SETUP: 12.5 µM; protein concentration 2 µM
Assign Fulfilled whenever thermal shift delta Tm does not fall below 1 °C; assign Not fulfilled whenever it does.

1. CC(C)N(CCC(=O)c1ccc2ccccc2c1)Cc1ccccc1; Not fulfilled
2. COc1ccc(Cl)cc1NC(=O)Nc1cc(C)nc2ccccc12; Not fulfilled
3. CC(C)c1cnn2c(NCc3ccccc3-n3cccn3)nc(OC3CCCNC3)nc12 (configuration not stated); Fulfilled
4. C=CC(=O)Nc1ccc(CN2C(=O)N(c3cc(OC)cc(OC)c3)Cc3cnc(Nc4ccc(N5CCN(C)CC5)cc4)nc32)cc1; Fulfilled
5. CO[C@@H](C)Cn1c(=O)n(C)c2cnc3ccc(-c4cncc(C(C)(C)O)c4)cc3c21; Fulfilled
6. CN1CCN(c2ccc3nc(-c4c(N)c5c(F)cccc5[nH]c4=O)[nH]c3c2)CC1 [Dovitinib (TKI258) Lactate]; Fulfilled
7. Cc1ncc(CO)c(CO)c1O; Not fulfilled
8. C=CC(=O)Nc1cccc(Sc2nc(Nc3ccc(N4CCN(C)CC4)cc3)ncc2Cl)c1; Fulfilled

Prompt line: I'd appreciate it if you could say whether `N#CCNC(=O)c1ccc(-c2ccnc(Nc3ccc(N4CCOCC4)cc3)n2)cc1` has thermal shift delta Tm at least equal to 1 °C.
Response line: Fulfilled

Prompt line: Could you tell me if the measured thermal shift delta Tm of `O=c1cc(N2CCOCC2)oc2c(-c3ccccc3)cccc12` reaches 1 °C or more?
Response line: Not fulfilled

Prompt line: Determine whether measured thermal shift delta Tm meets or exceeds 1 °C for `CCN(CC)CCCCNc1ncc2cc(-c3cc(OC)cc(OC)c3)c(NC(=O)NC(C)(C)C)nc2n1`
Response line: Not fulfilled

Prompt line: # bool: thermal shift delta Tm of `O=C1NC(=O)C(c2ccccc2[N+](=O)[O-])=C1Nc1ccc(O)c(Cl)c1` >= 1 °C
Response line: Fulfilled

Prompt line: thermal shift delta Tm >= 1 °C for `NC1(c2ccc(-c3nc4ccn5c(=O)[nH]nc5c4cc3-c3ccccc3)cc2)CCC1` ?
Response line: Not fulfilled

Prompt line: Does the molecule `CCCCOc1c(C(=O)c2c(F)cc(C)cc2F)c[nH]c2nncc1-2` have recorded thermal shift delta Tm that is 1 °C or more?
Response line: Not fulfilled
